- Test system: LAETG (Abz-LAETGK(Dnp)-CONH2)
- Experiment notes: In vitro sortase kinetics HPLC assay, LAETG substrate
- Format: biochemical
- Conditions used: Example 5 variants; substrate 2A (LAETG)
// values below are reported Avg kcat (Hz)

Molecule	Avg kcat (Hz)
eSrtA(2A-4): 5mut + A104H K162R V168I I182V (protein) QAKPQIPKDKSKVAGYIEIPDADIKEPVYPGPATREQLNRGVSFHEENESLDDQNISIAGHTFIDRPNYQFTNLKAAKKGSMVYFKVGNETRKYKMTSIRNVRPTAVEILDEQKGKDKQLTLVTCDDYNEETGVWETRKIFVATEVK	1.988
eSrtA(2A-6): round 6 consensus variant targeting LAETG; kinetics close to 2A.6A (protein) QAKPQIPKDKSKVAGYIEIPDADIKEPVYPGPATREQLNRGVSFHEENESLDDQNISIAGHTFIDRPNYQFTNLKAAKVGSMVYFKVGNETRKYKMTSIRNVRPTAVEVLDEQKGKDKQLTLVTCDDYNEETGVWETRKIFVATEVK	2.579
eSrtA(2A-3.5) (protein) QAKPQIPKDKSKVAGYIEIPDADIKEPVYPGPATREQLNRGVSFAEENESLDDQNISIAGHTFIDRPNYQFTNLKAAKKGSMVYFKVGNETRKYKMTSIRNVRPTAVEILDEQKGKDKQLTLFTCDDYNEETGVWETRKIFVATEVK	1.14
eSrtA(2A-9): P94R, S102C, A104H, E105D, K138P, K152I, N160K, K162H, T164N, D165A, K173E, I182V, K190E, T196S (protein) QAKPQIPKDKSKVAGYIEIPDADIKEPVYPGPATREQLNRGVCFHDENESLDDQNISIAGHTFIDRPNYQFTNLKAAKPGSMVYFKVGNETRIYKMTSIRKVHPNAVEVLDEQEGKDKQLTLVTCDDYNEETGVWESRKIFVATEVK	2.23
